# EXPERIMENT: Determination of plasma exposure of test compounds in rats (LC/MS of plasma after oral dosing)
# Type: in vivo, rat (male F-344)
# ASSAY_CONTEXT: rat, male F-344 rats, 30 mg/kg oral by gavage, suspension, time 6 hr, n = 3
# Method: General Procedure for Determination of Plasma Exposure of Test Compounds in Rats Each compound was administered as a suspension in a vehicle consisting of 5% ethanol, 95% of a mixture of 0.5% each Polysorbate 80/sodium carboxymethylcellulose in water. Three male F-344 rats were dosed orally at 30 mg/kg by gavage and blood collected by orbital venapuncture under isoflurane anesthesia at 0.5, 1, and 2 hours after dosing into sodium heparinized containers. […]
Examples of molecules with documented concentration at 6 h follow.
The figure you give is taken to be in ng/mL; do not add the unit.

{"MOLECULE": "CC(C)S(=O)(=O)NC[C@H](C)c1ccc(NC(=O)c2cc(F)cc(F)c2)cc1", "NUMERIC_RESULT": 693}

Here's the next entry for you.
Report measured concentration at 6 h; entry is CC(CNS(=O)(=O)C(C)C)c1ccc(NC(=O)c2ccc(F)cc2F)cc1 (centres unmarked)
67

* * *

# EXPERIMENT: Determination of plasma exposure of test compounds in rats (LC/MS of plasma after oral dosing)
# Format: in vivo, rat (male F-344)
# ASSAY_CONTEXT: male, F-344, rat, rats, oral administration of a 30 mg/kg dose, n = 3, read-out: AUC (area under the curve)
# Procedure: General Procedure for Determination of Plasma Exposure of Test Compounds in Rats Each compound was administered as a suspension in a vehicle consisting of 5% ethanol, 95% of a mixture of 0.5% each Polysorbate 80/sodium carboxymethylcellulose in water. Three male F-344 rats were dosed orally at 30 mg/kg by gavage and blood collected by orbital venapuncture under isoflurane anesthesia at 0.5, 1, and 2 hours after dosing into sodium heparinized containers. […]
PROPERTY_NAME: AUC
Form entry: enter the amount, then its unit.

{"MOLECULE": "CC(C)S(=O)(=O)NC[C@H](C)c1ccc(NC(=O)c2cc(F)cc(F)c2)cc1 [Compound B]", "AUC": "5600 ng·h/mL"}

Here's the next entry for you.
Report measured AUC; entry is CC(CNS(=O)(=O)C(C)C)c1ccc(NC(=O)c2ccc(F)cc2F)cc1 (centres unmarked) [Compound A]
1440 ng·h/mL

* * *

Examples of compounds with documented concentration at 2 h follow.
# EXPERIMENT: Determination of plasma exposure of test compounds in rats (LC/MS of plasma after oral dosing)
# Format: in vivo, rat (male F-344)
# ASSAY_CONTEXT: rat, male F-344 rats, 30 mg/kg oral by gavage, suspension, time 2 hr, n = 3

{"COMPOUND": "CC(C)S(=O)(=O)NC[C@H](C)c1ccc(NC(=O)c2cc(F)cc(F)c2)cc1", "RESULT": "1040 ng/mL"}

Here's the next entry for you.
Report measured concentration at 2 h; entry is CC(CNS(=O)(=O)C(C)C)c1ccc(NC(=O)c2ccc(F)cc2F)cc1 (centres unmarked)
329 ng/mL

* * *

# EXPERIMENT: Determination of plasma exposure of test compounds in rats (LC/MS of plasma after oral dosing)
# Type: in vivo, rat (male F-344)
# ASSAY_CONTEXT: male, F-344, rat, rats, oral administration of a 30 mg/kg dose, n = 3, read-out: Cmax (maximum concentration of test compound)
Examples of compounds with documented Cmax follow.
The figure you give is taken to be in ng/mL; do not add the unit.

{"COMPOUND": "CC(CNS(=O)(=O)C(C)C)c1ccc(NC(=O)c2ccc(F)cc2F)cc1 (centres unmarked) [Compound A]", "NUMERIC_RESULT": 473}

Report measured Cmax; entry is CC(C)S(=O)(=O)NC[C@H](C)c1ccc(NC(=O)c2cc(F)cc(F)c2)cc1 [Compound B]
1490

* * *

# EXPERIMENT: Determination of plasma exposure of test compounds in rats (LC/MS of plasma after oral dosing)
# Type: in vivo, rat (male F-344)
# ASSAY_CONTEXT: male, F-344, rat, rats, oral administration of a 30 mg/kg dose, n = 3, read-out: tmax (time at which maximum concentration resulted)
# Procedure: General Procedure for Determination of Plasma Exposure of Test Compounds in Rats Each compound was administered as a suspension in a vehicle consisting of 5% ethanol, 95% of a mixture of 0.5% each Polysorbate 80/sodium carboxymethylcellulose in water. Three male F-344 rats were dosed orally at 30 mg/kg by gavage and blood collected by orbital venapuncture under isoflurane anesthesia at 0.5, 1, and 2 hours after dosing into sodium heparinized containers. […]
PROPERTY_NAME: Tmax (min)
The figure you give is taken to be in min; do not add the unit.

{"COMPOUND": "CC(CNS(=O)(=O)C(C)C)c1ccc(NC(=O)c2ccc(F)cc2F)cc1 (centres unmarked)", "Tmax [min]": 30}

Here's the next entry for you.
Report measured Tmax; entry is CC(C)S(=O)(=O)NC[C@H](C)c1ccc(NC(=O)c2cc(F)cc(F)c2)cc1
30

* * *

Examples of molecules with documented concentration at 1 h follow.
# EXPERIMENT: Determination of plasma exposure of test compounds in rats (LC/MS of plasma after oral dosing)
# Assay type: in vivo, rat (male F-344)
# ASSAY_CONTEXT: rat, male F-344 rats, 30 mg/kg oral by gavage, suspension, time 1 hr, n = 3
# Protocol: General Procedure for Determination of Plasma Exposure of Test Compounds in Rats Each compound was administered as a suspension in a vehicle consisting of 5% ethanol, 95% of a mixture of 0.5% each Polysorbate 80/sodium carboxymethylcellulose in water. Three male F-344 rats were dosed orally at 30 mg/kg by gavage and blood collected by orbital venapuncture under isoflurane anesthesia at 0.5, 1, and 2 hours after dosing into sodium heparinized containers. […]
The figure you give is taken to be in ng/mL; do not add the unit.

{"MOLECULE": "CC(C)S(=O)(=O)NC[C@H](C)c1ccc(NC(=O)c2cc(F)cc(F)c2)cc1", "NUMERIC_RESULT": 1170}

Report measured concentration at 1 h; entry is CC(CNS(=O)(=O)C(C)C)c1ccc(NC(=O)c2ccc(F)cc2F)cc1 (centres unmarked)
333
